Reference source for all entries: paper PMC4113456

biological target: MAS (Homo sapiens, UniProt P04201); construct: expressed in transfected cells; experiment: FLIPR calcium assay, induced myc-tagged WT MAS HEK293 stable cell line; assay type: cell-based; details: WT MAS, induced cells
No end group written: not given here.
measurement label: EC50

1. YLFQPQRF-NH2 [[Y^1]-NPFF] | 12.2 µM

---

molecular target: MAS F112A mutant (Homo sapiens, UniProt P04201, F112A); test: IP1 assay, F112A MAS mutant stable cell line
pIC50: −log10 of the molar value.
measurement label: pIC50

1) C=CCCN1CCC2(CC1)CN(C(=O)c1c(F)cccc1F)c1ccc(Cl)cc12 | 5.68

---

Target: untagged WT MAS (Homo sapiens)
Sequence (P04201 1-325): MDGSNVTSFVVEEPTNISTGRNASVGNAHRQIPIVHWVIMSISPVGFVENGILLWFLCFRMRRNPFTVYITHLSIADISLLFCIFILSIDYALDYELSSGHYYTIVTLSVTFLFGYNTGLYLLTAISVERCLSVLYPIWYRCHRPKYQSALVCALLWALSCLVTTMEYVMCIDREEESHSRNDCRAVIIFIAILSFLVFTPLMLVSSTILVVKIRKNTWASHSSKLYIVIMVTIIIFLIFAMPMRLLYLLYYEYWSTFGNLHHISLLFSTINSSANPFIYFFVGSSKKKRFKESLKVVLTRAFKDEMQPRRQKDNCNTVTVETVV
Assay: Calcium assay, untagged WT MAS inducible HEK293 stable cell line
Details: read-out: IC50, calcium flux
measurement label: IC50 (µM)

1. C=CCCN1CCC2(CC1)CN(C(=O)c1c(F)cccc1F)c1ccc(Cl)cc12 [AR-inverse] | 0.5

---

biological target: MAS I191A mutant (Homo sapiens, UniProt P04201, I191A); construct: expressed in transfected cells; assay: Calcium assay, I191A MAS mutant stable cell line; format: cell-based
measurement label: EC50

1) COc1cc([N+](=O)[O-])ccc1S(=O)(=O)N1CC(CN2CCN(c3ccccn3)CC2)C(c2cccc(F)c2)C1 (stereo not shown) | 17.6 µM

---

target: untagged WT MAS (Homo sapiens, UniProt P04201); assay: Calcium assay, untagged WT MAS inducible HEK293 stable cell line; conditions: read-out: EC50, calcium flux
measurement label: EC50 (nM)

1. COc1cc([N+](=O)[O-])ccc1S(=O)(=O)N1CC(CN2CCN(c3ccccn3)CC2)C(c2cccc(F)c2)C1 (stereo not shown) | 1200

---

biological target: MAS (Homo sapiens); construct: expressed in transfected cells; assay: FLIPR calcium assay, induced myc-tagged WT MAS HEK293 stable cell line; format: cell-based; conditions: WT MAS, induced cells
pEC50: −log10 of the molar value. Residues, ends and D or L forms follow the SMILES beside them.
measurement label: pEC50

1) CC(C)C[C@H](NC(=O)[C@H](N)Cc1ccc(O)cc1)C(=O)N(C)[C@@H](Cc1ccccc1)C(=O)N[C@@H](CCC(N)=O)C(=O)N1CCC[C@H]1C(=O)N[C@@H](CCC(N)=O)C(=O)N[C@@H](CCCN=C(N)N)C(=O)N[C@@H](Cc1ccccc1)C(N)=O [[^DY^1] [^NMeF^3]-NPFF] (HELM PEPTIDE1{[dY].L.[meF].Q.P.Q.R.F.[am]}$$$$V2.0) | 5.62
2) CC[C@H](C)[C@H](NC(=O)[C@H](Cc1ccc(O)cc1)NC(=O)[C@@H](N)C(C)C)C(=O)N[C@@H](Cc1c[nH]cn1)C(=O)N1CCC[C@H]1C(=O)N[C@@H](Cc1ccccc1)C(N)=O [AngIV-amide] | 4.61
3) CC[C@H](C)[C@H](NC(=O)[C@H](Cc1ccc(O)cc1)NC(=O)[C@@H](NC(=O)[C@H](CCCN=C(N)N)NC(=O)CNC)C(C)C)C(=O)N[C@@H](Cc1c[nH]cn1)C(=O)N1CCC[C@H]1C(N)=O [[Sar^1]-Ang(1–7)-amide] | 3.71
4) COc1cc([N+](=O)[O-])ccc1S(=O)(=O)N1CC(CN2CCN(c3ccccn3)CC2)C(c2cccc(F)c2)C1 (stereo not shown) [AR-agonist] | 5.82
